The reported measurements were obtained from PubChem BioAssay AID1439.

# assayedSystem: Guanine nucleotide-binding protein G(o) subunit alpha (Homo sapiens)
# assayMethodText: compounds changing RGS7 association with Galphao – biochemical, multiplexed bead flow cytometry, primary screen (AID 1439);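 further: fluorescent Galphao held in activated GDP-AlF4 state binding bead-coupled RGS7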
# experimentalSetup: at 10 µM, actives lie on both sides
The whole screen tested about 220,000 compounds, of which about 770 (0.35%) were called active. About 15% were inconclusive and are not listed. No stated cut-off is given here; in the data, active means binding response below about 49% or above about 150%; inconclusive means no clear call, values can overlap the other calls; inactive means in between. What follows is part of a selection rich in actives, with near analogues and random picks from the rest.
Select the matching outcome among active, inactive

Name the outcome recorded for COc1ccc2oc(=O)c(C(=O)N3CCCC3)cc2c1 in the assay. inactive

Name the outcome recorded for COc1cccc(-n2nc(C(=O)N3CCN(Cc4ccccc4)CC3)c3ccccc3c2=O)c1 in the assay. inactive

Name the outcome recorded for CN1CCN(CCCCOc2ccccc2-c2ccccc2)CC1 in the assay. inactive

Name the outcome recorded for CCCC1C(c2ccccc2)C(C#N)(C#N)C2(C#N)CC1(N)NC2=O (stereo unspecified) in the assay. active

Name the outcome recorded for CC(=O)Nc1ccc(NC(=O)COc2ccccc2C(=O)Nc2cccc(Cl)c2Cl)cc1 in the assay. inactive

Name the outcome recorded for Cc1cc(C)n(CC(O)CN(c2ccccc2)S(=O)(=O)c2ccc3ccccc3c2)n1 (stereo unspecified) in the assay. active

Name the outcome recorded for COC(=O)Cn1cc(/C=C/[N+](=O)[O-])c2ccccc21 in the assay. inactive

Name the outcome recorded for COc1ccc(C2CC(c3ccccc3)Nc3ncnn32)cc1 (stereo unspecified) in the assay. inactive

Name the outcome recorded for COc1cc(CCC(=O)OCC(=O)Nc2cccc(S(N)(=O)=O)c2)cc(OC)c1OC in the assay. inactive

Name the outcome recorded for CCN1CCN(Cc2c(O)ccc3c(=O)c(-c4ccc(OC)c(OC)c4)c(C(F)(F)F)oc23)CC1 in the assay. inactive

Name the outcome recorded for O=C(NCCCN1CCOCC1)c1ccc([N+](=O)[O-])cc1[N+](=O)[O-] in the assay. inactive

Name the outcome recorded for COc1cc(/C=C/C(=O)N2c3ccccc3Sc3ccc(C(F)(F)F)cc32)cc(OC)c1OC in the assay. inactive

Name the outcome recorded for Clc1ccc(C2CC(c3cccs3)n3ncnc3N2)cc1Cl (stereo unspecified) in the assay. inactive

Name the outcome recorded for Cc1ccccc1CS(=O)(=O)CC1(O)CCN(C(=O)c2cccc(C(F)(F)F)c2)CC1 in the assay. active

Name the outcome recorded for COc1ccc(C(=O)CSc2nc(C)cc(C)n2)cc1[N+](=O)[O-] in the assay. inactive

Name the outcome recorded for CC(C)N1CCC(N2CCN(Cc3cccnc3)CC2CCO)CC1 (stereo unspecified) in the assay. inactive

Name the outcome recorded for Cc1cc(C)n2nc(SCC(=O)NC(=O)NCc3ccco3)nc2n1 in the assay. inactive

Name the outcome recorded for NS(=O)(=O)c1ccc(NC(=S)NNC(=O)c2cccs2)cc1 in the assay. inactive

Name the outcome recorded for CN(C)S(=O)(=O)Oc1ccccc1C(=O)Nc1ccccc1Cl in the assay. active
